# Tested on: KRAS-mutant PDC multicell tumor spheroid viability
# assay.protocol: Anticancer human tumor 521955-158-R2-J5-PDC patient-derived pancreatic carcinoma cell line growth inhibition [KRAS2]
# condition.parameters: second compound 0.1 µM; first compound 0.0316 µM; active compounds read low
parameter: viability, T/C (%)

compound	unit.annotation	measured
CCN1CCN(Cc2ccc(Nc3ncc(F)c(-c4cc(F)c5nc(C)n(C(C)C)c5c4)n3)nc2)CC1 + C=CC(=O)N1CCN(c2nc(=O)n(-c3c(C)ccnc3C(C)C)c3nc(-c4c(O)cccc4F)c(F)cc23)C(C)C1	%	110
CCN1CCN(Cc2ccc(Nc3ncc(F)c(-c4cc(F)c5nc(C)n(C(C)C)c5c4)n3)nc2)CC1 + CC1OCC2(CCN(c3cnc(Sc4ccnc(N)c4Cl)c(N)n3)CC2)C1N	%	59
CC(=O)Nc1cccc(-n2c(=O)n(C3CC3)c(=O)c3c(Nc4ccc(I)cc4F)n(C)c(=O)c(C)c32)c1 + C=CC(=O)N1CCN(c2nc(=O)n(-c3c(C)ccnc3C(C)C)c3nc(-c4c(O)cccc4F)c(F)cc23)C(C)C1	%	15.7
CC1OCC2(CCN(c3cnc(Sc4ccnc(N)c4Cl)c(N)n3)CC2)C1N (stereo not given) + COc1cc2nc(C)nc(NC(C)c3cc(N)cc(C(F)(F)F)c3)c2cc1OC1CCOC1	%	87.6
CC(=O)Nc1cccc(-n2c(=O)n(C3CC3)c(=O)c3c(Nc4ccc(I)cc4F)n(C)c(=O)c(C)c32)c1 + CC1OCC2(CCN(c3cnc(Sc4ccnc(N)c4Cl)c(N)n3)CC2)C1N	%	13.1
CCN1CCN(Cc2ccc(Nc3ncc(F)c(-c4cc(F)c5nc(C)n(C(C)C)c5c4)n3)nc2)CC1 + CNCc1ccccc1-c1csc(C(C)Nc2nc(C)nc3cc(OC)c(OC)cc23)c1	%	94.4
CC(=O)OC12COC1CC(O)C1(C)C(=O)C(O)C3=C(C)C(OC(=O)C(O)C(NC(=O)OC(C)(C)C)c4ccccc4)CC(O)(C(OC(=O)c4ccccc4)C21)C3(C)C (stereo not given) + CNCc1ccccc1-c1csc(C(C)Nc2nc(C)nc3cc(OC)c(OC)cc23)c1	%	16.2
CC(=O)Nc1cccc(-n2c(=O)n(C3CC3)c(=O)c3c(Nc4ccc(I)cc4F)n(C)c(=O)c(C)c32)c1 + CNCc1ccccc1-c1csc(C(C)Nc2nc(C)nc3cc(OC)c(OC)cc23)c1	%	15.9
CC(=O)OC12COC1CC(O)C1(C)C(=O)C(O)C3=C(C)C(OC(=O)C(O)C(NC(=O)OC(C)(C)C)c4ccccc4)CC(O)(C(OC(=O)c4ccccc4)C21)C3(C)C (stereo not given) + COc1cc2nc(C)nc(NC(C)c3cc(N)cc(C(F)(F)F)c3)c2cc1OC1CCOC1	%	13.7
COC(=O)c1ccc2c(C(=Nc3ccc(N(C)C(=O)CN4CCN(C)CC4)cc3)c3ccccc3)c(O)[nH]c2c1 + C=CC(=O)N1CCN(c2nc(=O)n(-c3c(C)ccnc3C(C)C)c3nc(-c4c(O)cccc4F)c(F)cc23)C(C)C1	%	89.6

###

# Test system: KRAS-mutant PDC multicell tumor spheroid viability
# assay.protocol: Anticancer human tumor 521955-158-R2-J5-PDC cell line growth inhibition [KRAS2];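 note: viability read after seven days of drug exposure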
# condition.parameters: second compound 0.316 µM; first compound 0.001 µM; active compounds read low
# Source text: Multicellular complex tumor spheroid response to RAS pathway inhibitors in combination with a targeted agents in patient-derived cell lines with oncogenic KRAS variants from multiple cancer types A high-throughput screen of multi-cell type tumor spheroids was designed to identify active combinations of targeted small molecules and KRAS pathway inhibitors. […] Compounds. […] If the clinical Cmax for an agent had not been determined, the highest concentration tested was 10 microM. […]

compound	unit.annotation	viability, T/C
CC(C)n1nc(-c2ccc3oc(N)nc3c2)c2c(N)ncnc21 + C=CC(=O)N1CCN(c2nc(OCC3CCCN3C)nc3c2CCN(c2cccc4cccc(C)c24)C3)CC1CC#N	%	90.6
Cn1ncnc1[C@H]1c2n[nH]c(=O)c3cc(F)cc(c23)N[C@@H]1c1ccc(F)cc1 + CC1OCC2(CCN(c3cnc(Sc4ccnc(N)c4Cl)c(N)n3)CC2)C1N	%	58.2
Cn1ncnc1[C@H]1c2n[nH]c(=O)c3cc(F)cc(c23)N[C@@H]1c1ccc(F)cc1 + COc1cc2nc(C)nc(NC(C)c3cc(N)cc(C(F)(F)F)c3)c2cc1OC1CCOC1	%	90.5
